tested on: SNB-78; assay: NCI tumour cell line growth inhibition, 48 h
Activity calls are given as the source filed them. Rule as the data show it: active = GI50 up to about 1.1 µM and inactive = higher.
Pick from true (active), false (inactive) when you respond.

Worked cases, answers included:
molecule: CCOc1ccc(/C=C/c2cc(OC)c(OC)c(OC)c2)cc1
study.system: SNB-78
category.label: true

molecule: COc1ccc2[nH]c3c(C)c4c(c(C)c3c2c1)CN(C)CC4
study.system: SNB-78
category.label: false

molecule: Cc1nc2c(nc1C)C(=O)c1cc(O)ccc1C2=O
study.system: SNB-78
category.label: false

Recorded test call requested for COC1=CC(=O)[C@]2(C)[C@H](C1=O)C(C)[C@H]2c1ccc(OC)cc1 (stereo partly drawn)
false

Recorded test call requested for N[C@H](COCc1ccccc1)c1ccccc1
false

Recorded test call requested for CCN(CC)CCCOC(=O)/C=C/c1c(C)[nH]c(=O)[nH]c1=O
false

Recorded test call requested for O=C1c2ccccc2C(=O)c2c1ccc1conc21
false

Recorded test call requested for N[C@H](C(=O)O)[C@@H](Cl)CC(=O)O
false

src = ChEMBL document CHEMBL1201862
